Please respond with reported IC50 for every item in the list.
target: Voltage-gated inwardly rectifying potassium channel KCNH2 (Homo sapiens, UniProt Q12809); assay: Inhibition of human ERG expressed in CHO cells
Sequence (Q12809 whole entry): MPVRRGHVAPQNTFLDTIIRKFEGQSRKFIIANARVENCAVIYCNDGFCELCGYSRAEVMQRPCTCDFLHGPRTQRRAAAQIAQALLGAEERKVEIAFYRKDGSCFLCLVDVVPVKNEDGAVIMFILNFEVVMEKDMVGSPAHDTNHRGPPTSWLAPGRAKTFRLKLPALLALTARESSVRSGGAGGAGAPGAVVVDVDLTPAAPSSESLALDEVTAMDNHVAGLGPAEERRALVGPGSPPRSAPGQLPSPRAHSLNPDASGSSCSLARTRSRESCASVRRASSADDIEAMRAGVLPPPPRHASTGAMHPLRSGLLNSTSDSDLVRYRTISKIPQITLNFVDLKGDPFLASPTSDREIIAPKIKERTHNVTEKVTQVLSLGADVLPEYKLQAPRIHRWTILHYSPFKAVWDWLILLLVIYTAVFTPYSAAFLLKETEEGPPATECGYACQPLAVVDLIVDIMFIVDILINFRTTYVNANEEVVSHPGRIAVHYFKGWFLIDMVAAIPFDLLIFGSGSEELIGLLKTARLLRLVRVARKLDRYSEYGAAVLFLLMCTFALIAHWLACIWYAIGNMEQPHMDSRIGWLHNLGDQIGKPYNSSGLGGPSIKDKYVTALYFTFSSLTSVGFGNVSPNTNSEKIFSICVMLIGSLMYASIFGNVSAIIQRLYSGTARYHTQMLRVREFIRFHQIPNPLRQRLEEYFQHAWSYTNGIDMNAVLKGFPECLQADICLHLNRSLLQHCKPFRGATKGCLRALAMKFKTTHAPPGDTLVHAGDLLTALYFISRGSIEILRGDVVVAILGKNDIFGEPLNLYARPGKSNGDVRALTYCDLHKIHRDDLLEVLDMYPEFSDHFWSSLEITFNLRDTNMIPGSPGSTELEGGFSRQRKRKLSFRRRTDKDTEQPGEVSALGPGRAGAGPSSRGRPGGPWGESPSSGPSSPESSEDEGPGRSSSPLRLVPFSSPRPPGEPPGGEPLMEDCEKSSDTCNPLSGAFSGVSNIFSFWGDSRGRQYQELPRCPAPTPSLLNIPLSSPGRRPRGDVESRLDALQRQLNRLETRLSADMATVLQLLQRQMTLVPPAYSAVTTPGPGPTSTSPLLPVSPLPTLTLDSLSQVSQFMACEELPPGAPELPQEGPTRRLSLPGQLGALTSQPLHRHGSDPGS

Query :: Given the entry "C=C1C(=O)[C@]23[C@H](O)[C@H]1CC[C@H]2[C@]12C=CCC(C)(C)[C@H]1[C@H](O)[C@@]3(OCc1cncs1)OC2" , report its measured IC50.
Result :: > 40 µM

Query :: Given the entry "C=C1C(=O)[C@]23[C@H](O)[C@H]1CC[C@H]2[C@]12C=CCC(C)(C)[C@H]1[C@H](O)[C@@]3(OCCC(=O)O)OC2" , report its measured IC50.
Result :: > 40 µM

* * *

assay: Stability in rat plasma assessed as half life measured upto 8 hrs; assay type: ADME, cell-free
Please respond with reported half-life for every item in the list.
Lab book: enter the figure in h, no units written.

Query :: Given the entry "C=C1C(=O)[C@]23[C@H](O)[C@H]1CC[C@H]2[C@]12C=CCC(C)(C)[C@H]1[C@H](O)[C@@]3(OCc1cncs1)OC2" , report its measured half-life.
Result :: 1.74

Query :: Given the entry "C=C1C(=O)[C@]23[C@H](O)[C@H]1CC[C@H]2[C@]12C=CCC(C)(C)[C@H]1[C@H](O)[C@@]3(OCCC(=O)O)OC2" , report its measured half-life.
Result :: 6.21

* * *

Please respond with reported half-life for every item in the list.
test: Stability in human liver microsomes assessed as half life preincubated for 5 mins with NADPH followed by compound addition and measured upto 120 mins by LC-MS/MS analysis; assay type: ADME, Microsome; settings: time < 125 min
Lab book: enter the figure in h, no units written.

Query :: Given the entry "C=C1C(=O)[C@]23[C@H](O)[C@H]1CC[C@H]2[C@]12C=CCC(C)(C)[C@H]1[C@H](O)[C@@]3(OCCC(=O)O)OC2" , report its measured half-life.
Result :: 3.03

Query :: Given the entry "C=C1C(=O)[C@]23[C@H](O)[C@H]1CC[C@H]2[C@]12C=CCC(C)(C)[C@H]1[C@H](O)[C@@]3(OCc1cncs1)OC2" , report its measured half-life.
Result :: 0.0703

* * *

assay: Stability in mouse liver microsomes assessed as half life preincubated for 5 mins with NADPH followed by compound addition and measured upto 120 mins by LC-MS/MS analysis; type: ADME, Microsome; conditions: time < 125 min
Please respond with reported half-life for every item in the list.
Lab book: enter the figure in h, no units written.

Query :: Given the entry "C=C1C(=O)[C@]23[C@H](O)[C@H]1CC[C@H]2[C@]12C=CCC(C)(C)[C@H]1[C@H](O)[C@@]3(OCCC(=O)O)OC2" , report its measured half-life.
Result :: 3.07

Query :: Given the entry "C=C1C(=O)[C@]23[C@H](O)[C@H]1CC[C@H]2[C@]12C=CCC(C)(C)[C@H]1[C@H](O)[C@@]3(OCc1cncs1)OC2" , report its measured half-life.
Result :: 0.0522

* * *

target: NACHT, LRR and PYD domains-containing protein 3 (Mus musculus); assay: Inhibition of NLRP3 inflammasome activation in LPS/ATP-induced C57BL/6 mouse BMDMs assessed as reduction in IL-1beta secretion at 100 nM preincubated with LPS for 4 hrs followed by compound addition for 30 mins and further stimulated with ATP for 30 mins by ELISA relative to control; format: cell-based; conditions: BMDM, time 1.0 hrs
Please respond with reported inhibition for every item in the list.
Lab book: enter the figure in %, no units written.

Query :: Which inhibition is reported with NACHT, LRR and PYD domains-containing protein 3 (Mus musculus) for this entry: "C=C1C(=O)[C@]23[C@H](O)[C@H]1CC[C@H]2[C@]12C=CCC(C)(C)[C@H]1[C@H](O)[C@@]3(OCCC(=O)NCC(C)C)OC2" ?
Result :: 40.7

Query :: Which inhibition is reported with NACHT, LRR and PYD domains-containing protein 3 (Mus musculus) for this entry: "C=C1C(=O)[C@]23[C@H](O)[C@H]1CC[C@H]2[C@]12C=CCC(C)(C)[C@H]1[C@H](O)[C@@]3(OCCC(=O)O)OC2" ?
Result :: 64.3

Query :: Which inhibition is reported with NACHT, LRR and PYD domains-containing protein 3 (Mus musculus) for this entry: "C=C1C(=O)[C@]23[C@H](O)[C@H]1CC[C@H]2[C@]12C=CCC(C)(C)[C@H]1[C@H](O)[C@@]3(OCCC(=O)N1CCN(C)CC1)OC2" ?
Result :: 45

Query :: Which inhibition is reported with NACHT, LRR and PYD domains-containing protein 3 (Mus musculus) for this entry: "C=C1C(=O)[C@]23[C@H](OCc4ccc(C#N)cc4)[C@H]1CC[C@H]2[C@]12C=CCC(C)(C)[C@H]1[C@H](O)[C@@]3(O)OC2" ?
Result :: 31.1

Query :: Which inhibition is reported with NACHT, LRR and PYD domains-containing protein 3 (Mus musculus) for this entry: "C=CCNC(=O)CCO[C@@]12OC[C@]3(C=CCC(C)(C)[C@H]3[C@@H]1O)[C@@H]1CC[C@H]3C(=C)C(=O)[C@]12[C@@H]3O" ?
Result :: 52.6

Query :: Which inhibition is reported with NACHT, LRR and PYD domains-containing protein 3 (Mus musculus) for this entry: "C=C1C(=O)[C@]23[C@H](O)[C@H]1CC[C@H]2[C@]12C=CCC(C)(C)[C@H]1[C@H](O)[C@@]3(OCCC(=O)N(CCC)CCC)OC2" ?
Result :: 25.4

* * *

molecular target: NACHT, LRR and PYD domains-containing protein 3 (Mus musculus); assay: Inhibition of NLRP3 inflammasome activation in LPS/ATP-induced C57BL/6 mouse BMDMs assessed as reduction in IL-1beta secretion at 200 nM preincubated with LPS for 4 hrs followed by compound addition for 30 mins and further stimulated with ATP for 30 mins by ELISA relative to control; assay type: cell-based; details: BMDM, time 1.0 hrs
MEASURED PROPERTY: inhibition (%)
Lab book: enter the figure in %, no units written.

Query :: Given the entry "C=C1C(=O)[C@]23[C@H](O)[C@H]1CC[C@H]2[C@]12C=CCC(C)(C)[C@H]1[C@H](O)[C@@]3(OCc1ccccc1)OC2" , report its measured inhibition.
Result :: 70.1

Query :: Given the entry "C=C1C(=O)[C@]23[C@H](O)[C@H]1CC[C@H]2[C@]12C=CCC(C)(C)[C@H]1[C@H](O)[C@@]3(OCc1ccc(C#N)cc1)OC2" , report its measured inhibition.
Result :: 64.7

Query :: Given the entry "C=C1C(=O)[C@]23[C@H](O)[C@H]1CC[C@H]2[C@]12C=CCC(C)(C)[C@H]1[C@H](O)[C@@]3(OCCCC(=O)O)OC2" , report its measured inhibition.
Result :: 68.7

Query :: Given the entry "C=CCNC(=O)CCO[C@@]12OC[C@]3(C=CCC(C)(C)[C@H]3[C@@H]1O)[C@@H]1CC[C@H]3C(=C)C(=O)[C@]12[C@@H]3O" , report its measured inhibition.
Result :: 62.1

Query :: Given the entry "C=C1C(=O)[C@]23[C@H](O)[C@H]1CC[C@H]2[C@]12C=CCC(C)(C)[C@H]1[C@H](O)[C@@]3(OCCCc1ccc(Cl)cc1)OC2" , report its measured inhibition.
Result :: 47.8

Query :: Given the entry "C=C1C(=O)[C@]23[C@H](O)[C@H]1CC[C@H]2[C@]12C=CCC(C)(C)[C@H]1[C@H](O)[C@@]3(OCCC(=O)N1CCN(C)CC1)OC2" , report its measured inhibition.
Result :: 60.3

Query :: Given the entry "C=C1C(=O)[C@]23[C@H](O)[C@H]1CC[C@H]2[C@@]12CO[C@]3(O)[C@@H](O)[C@@H]1C(C)(C)CC[C@@H]2O" , report its measured inhibition.
Result :: 14.3

Query :: Given the entry "C=C1C(=O)[C@]23[C@H](O)[C@H]1CC[C@H]2[C@]12C=CCC(C)(C)[C@H]1[C@H](O)[C@@]3(OCCC(=O)N(CCC)CCC)OC2" , report its measured inhibition.
Result :: 67.4

Query :: Given the entry "C=C1C(=O)[C@]23[C@H](O)[C@H]1CC[C@H]2[C@]12C=CCC(C)(C)[C@H]1[C@H](O)[C@@]3(O)OC2" , report its measured inhibition.
Result :: 45.3

* * *

Please respond with reported Cmax for every item in the list.
assay: Cmax in ICR mouse at 10 mg/kg, po measured upto 24 hrs by LC-MS/MS method; format: ADME, organism-based; conditions: in vivo
Lab book: enter the figure in ng/mL, no units written.

Query :: Given the entry "C=C1C(=O)[C@]23[C@H](O)[C@H]1CC[C@H]2[C@]12C=CCC(C)(C)[C@H]1[C@H](O)[C@@]3(OCCC(=O)O)OC2" , report its measured Cmax.
Result :: 279

Query :: Given the entry "C=C1C(=O)[C@]23[C@H](O)[C@H]1CC[C@H]2[C@]12C=CCC(C)(C)[C@H]1[C@H](O)[C@@]3(OCc1cncs1)OC2" , report its measured Cmax.
Result :: 11.4
